- System: nude mice, HT29 intrarenal xenograft, tumor weight T/C
- Assay Method Text: NCI In Vivo Anticancer Drug Screen. Data for tumor model HT29;CX-1 Human Adenocarcinoma (MER+) (intrarenal inoculation) in NU/NU Swiss (nude) mice
- Assay Conditions: endpoint: mean tumor weight change; dose: 300.0 mg/kg/injection; schedule: Q04DX004 (sc); vehicle: saline with Tween-80; higher = larger tumour
Records with an inconclusive call do not appear.
Measured Property: T/C

Request body: readout T/C, system nude mice, HT29 intrarenal xenograft, tumor weight T/C, query O=C1C2CC=CCC2C(=O)N1SC(Cl)(Cl)Cl (stereo unspecified) . Return the value.
101 % of control

Request body: readout T/C, system nude mice, HT29 intrarenal xenograft, tumor weight T/C, query CN(C=O)C(C(=O)Nc1cccc2c(OC(=O)C(N(C)C=O)(N(C)C=O)N(C)C=O)c(N=Nc3ccc(S(=O)(=O)Nc4nccs4)cc3)cc(N=Nc3ccc(S(=O)(=O)Nc4nccs4)cc3)c12)(N(C)C=O)N(C)C=O (tested in a mixture with another compound) . Return the value.
91 % of control

Request body: readout T/C, system nude mice, HT29 intrarenal xenograft, tumor weight T/C, query `Cc1oc2c(C)c3oc(=O)cc(C)c3cc2c1CCl` . Return the value.
71 % of control

Request body: readout T/C, system nude mice, HT29 intrarenal xenograft, tumor weight T/C, query `O=[N+]([O-])c1ccc(Sc2ccncn2)c([N+](=O)[O-])c1` . Return the value.
85 % of control

Request body: readout T/C, system nude mice, HT29 intrarenal xenograft, tumor weight T/C, query `COc1ccc([I+]c2cccc(Cl)c2)cc1Cl` . Return the value.
39 % of control

Request body: readout T/C, system nude mice, HT29 intrarenal xenograft, tumor weight T/C, query `COc1cc(Cl)ccc1C` . Return the value.
64 % of control

Request body: readout T/C, system nude mice, HT29 intrarenal xenograft, tumor weight T/C, query `O=Cc1ccc(O)c(O)c1` . Return the value.
86 % of control

Request body: readout T/C, system nude mice, HT29 intrarenal xenograft, tumor weight T/C, query `CNC(=O)n1c(N)nc(-c2ccccc2)c1-c1ccccc1` . Return the value.
92 % of control

Request body: readout T/C, system nude mice, HT29 intrarenal xenograft, tumor weight T/C, query `C[Si](C)(CCl)N[Si](C)(C)CCl` . Return the value.
101 % of control

Request body: readout T/C, system nude mice, HT29 intrarenal xenograft, tumor weight T/C, query `CCC(CC)COC(=O)c1ccccc1C(=O)OCC(CC)CC` . Return the value.
94 % of control

Request body: readout T/C, system nude mice, HT29 intrarenal xenograft, tumor weight T/C, query `NC(=S)N/N=C/c1ccc(OC(=O)COc2ccc(Cl)cc2)cn1` . Return the value.
103 % of control

Request body: readout T/C, system nude mice, HT29 intrarenal xenograft, tumor weight T/C, query O=C1NCC(Br)C(=O)N1 (stereo unspecified) . Return the value.
50 % of control

Request body: readout T/C, system nude mice, HT29 intrarenal xenograft, tumor weight T/C, query `C1=CCOCOC1` . Return the value.
72 % of control

Request body: readout T/C, system nude mice, HT29 intrarenal xenograft, tumor weight T/C, query `C=C/C(C)=C/[C@H](C)C(=O)C[C@H](O)CC1CC(=O)NC(=O)C1` . Return the value.
100 % of control

Request body: readout T/C, system nude mice, HT29 intrarenal xenograft, tumor weight T/C, query `O=C1SC(c2ccccc2)=S=C1c1ccccc1` . Return the value.
102 % of control

Request body: readout T/C, system nude mice, HT29 intrarenal xenograft, tumor weight T/C, query `O=C(Nc1nncs1)c1cccs1` . Return the value.
106 % of control

Request body: readout T/C, system nude mice, HT29 intrarenal xenograft, tumor weight T/C, query CC(=O)OCC1(C)NC(=O)c2ccccc2O1 (stereo unspecified) . Return the value.
79 % of control

Request body: readout T/C, system nude mice, HT29 intrarenal xenograft, tumor weight T/C, query `Cc1cc2c(C(C)C)c(O)c(O)c(C=O)c2c(O)c1-c1c(C)cc2c(C(C)C)c(O)c(O)c(C=O)c2c1O` . Return the value.
46 % of control

Request body: readout T/C, system nude mice, HT29 intrarenal xenograft, tumor weight T/C, query `Cc1cc2cc3cc(C)c(N)cc3nc2cc1N` . Return the value.
89 % of control

Request body: readout T/C, system nude mice, HT29 intrarenal xenograft, tumor weight T/C, query `Cc1ccc(NC(=O)Oc2ccc(Br)cc2Br)c([N+](=O)[O-])c1` . Return the value.
35 % of control

Request body: readout T/C, system nude mice, HT29 intrarenal xenograft, tumor weight T/C, query `CC(/C=C/c1ccccc1)=Nc1ccccc1` . Return the value.
50 % of control

Request body: readout T/C, system nude mice, HT29 intrarenal xenograft, tumor weight T/C, query `C=CCNc1nc2c(s1)CCc1cc(OC)c(OC)cc1-2` . Return the value.
114 % of control

Request body: readout T/C, system nude mice, HT29 intrarenal xenograft, tumor weight T/C, query CC1(C)OC2C(COC(=O)c3ccc([N+](=O)[O-])cc3)OC(NC(=O)N(CCCl)N=O)C2O1 (stereo unspecified) . Return the value.
26 % of control

Request body: readout T/C, system nude mice, HT29 intrarenal xenograft, tumor weight T/C, query `CNc1cccnc1/C=N/NC(N)=S` . Return the value.
33 % of control

Request body: readout T/C, system nude mice, HT29 intrarenal xenograft, tumor weight T/C, query `CCCCCCCCCCCCCC#CC(=O)O` . Return the value.
104 % of control

Request body: readout T/C, system nude mice, HT29 intrarenal xenograft, tumor weight T/C, query CCCN1COC(OCC)C(C)(C)C1 (stereo unspecified) . Return the value.
79 % of control

Request body: readout T/C, system nude mice, HT29 intrarenal xenograft, tumor weight T/C, query `CCC(=O)Sc1ccccc1C(=O)Nc1ccc(Cl)cc1` . Return the value.
122 % of control

Request body: readout T/C, system nude mice, HT29 intrarenal xenograft, tumor weight T/C, query `C[Si](C)(C)n1nnn(-c2ccccc2)c1=O` . Return the value.
116 % of control

Request body: readout T/C, system nude mice, HT29 intrarenal xenograft, tumor weight T/C, query `O=C(C/C(=N\C(=S)Nc1cc(C(F)(F)F)ccc1Cl)NO)N1CCCC1` . Return the value.
80 % of control

Request body: readout T/C, system nude mice, HT29 intrarenal xenograft, tumor weight T/C, query `ClCc1ccc2ccccc2n1` . Return the value.
86 % of control

Request body: readout T/C, system nude mice, HT29 intrarenal xenograft, tumor weight T/C, query `CCCCCCCCCCCCSC1=C(Cl)C(=O)C(OC)=C(OC)C1=O` . Return the value.
25 % of control

Request body: readout T/C, system nude mice, HT29 intrarenal xenograft, tumor weight T/C, query `CN=C(N)N/N=C(\C)c1ccc2oc3ccc(/C(C)=N/NC(N)=NC)cc3c2c1` . Return the value.
98 % of control

Request body: readout T/C, system nude mice, HT29 intrarenal xenograft, tumor weight T/C, query `O=C1CN(Cc2ccc3c(c2)OCO3)NO1` . Return the value.
103 % of control

Request body: readout T/C, system nude mice, HT29 intrarenal xenograft, tumor weight T/C, query `Nc1ccc(C(OC(=O)c2cc3ccccc3c(Cc3c(O)c(C(=O)OC(c4ccc(N)cc4)(c4ccc(N)cc4)c4ccc(N)cc4)cc4ccccc34)c2O)(c2ccc(N)cc2)c2ccc(N)cc2)cc1` . Return the value.
55 % of control

Request body: readout T/C, system nude mice, HT29 intrarenal xenograft, tumor weight T/C, query `Nc1nc(N)c2c(Cl)c(CNc3ccc(Cl)c(Cl)c3)ccc2n1` . Return the value.
64 % of control

Request body: readout T/C, system nude mice, HT29 intrarenal xenograft, tumor weight T/C, query CCCCCCCC(=O)[O][Hg][CH2]C1COC([CH2][Hg][O]C(=O)CCCCCCC)CO1 (stereo unspecified) . Return the value.
51 % of control

Request body: readout T/C, system nude mice, HT29 intrarenal xenograft, tumor weight T/C, query `CC(=O)Nc1cscc1NC(C)=O` . Return the value.
155 % of control

Request body: readout T/C, system nude mice, HT29 intrarenal xenograft, tumor weight T/C, query `O=S1(=O)C=C(c2ccccc2)C(c2ccccc2)=C1` . Return the value.
83 % of control

Request body: readout T/C, system nude mice, HT29 intrarenal xenograft, tumor weight T/C, query `CN1C(=O)C(=Cc2ccc(O)cc2)C(=O)N(C)C1=O` . Return the value.
101 % of control

Request body: readout T/C, system nude mice, HT29 intrarenal xenograft, tumor weight T/C, query [I][Hg][CH2]C1COC([CH2][Hg][I])CO1 (stereo unspecified) . Return the value.
54 % of control

Request body: readout T/C, system nude mice, HT29 intrarenal xenograft, tumor weight T/C, query `O=Cc1c(O)c2ccccc2[nH]c1=O` . Return the value.
79 % of control
